Measured cAMP Emax (1.0% HSA), listed per entry.
target desc: T1, human GIP receptor (human, UniProt P48546 22-466)
T1 sequence (looked up): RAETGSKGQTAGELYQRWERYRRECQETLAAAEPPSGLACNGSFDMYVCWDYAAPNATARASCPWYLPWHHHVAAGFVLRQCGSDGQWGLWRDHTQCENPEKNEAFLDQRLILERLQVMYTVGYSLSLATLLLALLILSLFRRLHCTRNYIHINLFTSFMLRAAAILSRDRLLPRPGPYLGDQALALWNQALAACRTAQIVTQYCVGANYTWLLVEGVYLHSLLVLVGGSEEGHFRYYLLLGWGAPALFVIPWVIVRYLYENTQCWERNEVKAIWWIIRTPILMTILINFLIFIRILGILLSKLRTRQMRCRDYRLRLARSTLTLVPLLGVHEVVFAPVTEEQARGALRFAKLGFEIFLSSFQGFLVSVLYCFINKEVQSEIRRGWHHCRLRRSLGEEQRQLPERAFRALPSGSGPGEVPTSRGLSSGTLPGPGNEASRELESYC
protocol summary: cell-based or functional assay
*1 amine or outer side, *2 acyl side, *3 side chain or, on linkers, in order; H or OH if unused. Where no end group is shown, it is not given here. Side-chain parts run from the residue outwards. [ ]: non-standard residue; d: D form. The star is where a group is joined. Decanoyl(10-(4-HOOC-PhO)) = O=C(O)c1ccc(OCCCCCCCCCC(=O)*)cc1; αMePhe(2-F) = C[C@](N)(Cc1ccccc1F)C(=O)O; γGlu = O=C(O)[C@H](CCC(=O)[*:2])N[*:1]; αMeY = C[C@](N)(Cc1ccc(O)cc1)C(=O)O; αMeL = CC(C)C[C@](C)(N)C(=O)O; Orn = NCCC[C@H](N)C(=O)O; AEEA = NCCOCCOCC(=O)O; Aib = CC(C)(N)C(=O)O
Write down the numeric answer in % and omit the unit.

Study these solved cases before continuing.
>>> measured_number("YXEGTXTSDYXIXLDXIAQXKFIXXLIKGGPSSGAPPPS (Y-Aib-EGT-αMeF(2F)-TSDY-Aib-I-αMeL-LD-Orn-IAQ-Aib-K((2-[2-(2-Amino-ethoxy)-ethoxy]-acetyl)-(γ-Glu)-(10-(4-carboxyphenoxy)decanoyl))FI-(D-Glu)-αMeY-LIK((2-[2-(2-Amino-ethoxy)-ethoxy]-acetyl)-(γ-Glu)-(10-(4-carboxyphenoxy)decanoyl))GGPSSGAPPPS-NH2) [Example 376]")
88.3
>>> measured_number("YXEGTXTSDXXGXLDXQAQXXFIKXLIKGGPSSGAPPPS (Y-Aib-EGT-αMeF(2F)-TSD-4Pal-Aib-G-αMeL-LD-Orn-QAQ-Aib-Orn-FIK((2-[2-(2-Amino-ethoxy)-ethoxy]-acetyl)2-(γ-Glu)-CO-(CH2)12-CO2H)-αMeY-LIK((2-[2-(2-Amino-ethoxy)-ethoxy]-acetyl)2-(γ-Glu)-CO-(CH2)12-CO2H)GGPSSGAPPPS-NH2) [Example 441]")
83.8

Briefly, cAMP Emax (1.0% HSA) measured for Y[Aib]EGT[αMePhe(2-F)]TSDV[Aib]I[αMeL]LD[Orn]IAQ[Aib][Orn]FIK([AEEA-AEEA-γGlu-Decanoyl(10-(4-HOOC-PhO))])[αMeY]LIK([AEEA-AEEA-γGlu-Decanoyl(10-(4-HOOC-PhO))])GGPSSGAPPPS-NH2 [Example 356] : 82.7
